Test System: triacylglycerol hydrolase (TGH) (Mus musculus, UniProt Q8VCT4)
Sequence (Q8VCT4 19-565): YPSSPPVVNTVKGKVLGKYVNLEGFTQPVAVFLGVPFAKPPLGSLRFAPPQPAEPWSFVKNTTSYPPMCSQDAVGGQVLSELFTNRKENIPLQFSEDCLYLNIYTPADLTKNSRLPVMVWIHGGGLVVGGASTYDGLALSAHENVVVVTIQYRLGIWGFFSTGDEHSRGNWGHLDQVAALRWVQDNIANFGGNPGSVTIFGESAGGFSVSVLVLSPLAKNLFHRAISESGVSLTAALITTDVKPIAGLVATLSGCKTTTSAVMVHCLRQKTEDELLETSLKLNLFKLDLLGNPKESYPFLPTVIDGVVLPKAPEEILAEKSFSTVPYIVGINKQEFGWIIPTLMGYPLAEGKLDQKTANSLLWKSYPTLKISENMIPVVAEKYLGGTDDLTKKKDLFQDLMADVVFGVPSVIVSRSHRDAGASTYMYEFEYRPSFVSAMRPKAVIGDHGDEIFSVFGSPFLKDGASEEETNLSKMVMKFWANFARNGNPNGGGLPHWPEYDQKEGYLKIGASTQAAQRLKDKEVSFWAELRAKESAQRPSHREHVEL
molecules and their reported IC50

Molecule	Test System	Reading Qualifier	IC50 / µM
COC(=O)c1cccc(-c2nnc(C(=O)CCCCCCc3ccccc3)o2)n1 [8f]	triacylglycerol hydrolase (TGH) (Mus musculus, UniProt Q8VCT4)	=	0.04
COC(=O)c1cccc(-c2cnc(C(=O)CCCCCCc3ccccc3)s2)n1 [11f]	triacylglycerol hydrolase (TGH) (Mus musculus, UniProt Q8VCT4)	=	40
COC(=O)c1nnc(C(=O)CCCCCCc2ccccc2)s1 [12h]	triacylglycerol hydrolase (TGH) (Mus musculus, UniProt Q8VCT4)	=	11
O=C(CCCCCCc1ccccc1)c1ncc(-c2ccccn2)s1 [11b]	triacylglycerol hydrolase (TGH) (Mus musculus, UniProt Q8VCT4)	=	8
O=C(CCCCCCc1ccccc1)c1ccc(-c2ccccn2)nn1 [13b]	triacylglycerol hydrolase (TGH) (Mus musculus, UniProt Q8VCT4)	>	100
O=C(O)c1cccc(-c2ccc(C(=O)CCCCCCc3ccccc3)nn2)n1 [13g]	triacylglycerol hydrolase (TGH) (Mus musculus, UniProt Q8VCT4)	>	100
O=C(CCCCCCc1ccccc1)c1cccnn1 [13a, 7-Phenyl-1-(pyridazin-3-yl)-heptan-1-one]	triacylglycerol hydrolase (TGH) (Mus musculus, UniProt Q8VCT4)	=	5
COC(=O)c1cccc(-c2noc(C(=O)CCCCCCc3ccccc3)n2)n1 [9f]	triacylglycerol hydrolase (TGH) (Mus musculus, UniProt Q8VCT4)	=	0.15
O=C(O)c1cccc(-c2nc(C(=O)CCCCCCc3ccccc3)no2)n1 [10g]	triacylglycerol hydrolase (TGH) (Mus musculus, UniProt Q8VCT4)	>	100
O=C(O)c1cccc(-c2noc(C(=O)CCCCCCc3ccccc3)n2)n1 [9g]	triacylglycerol hydrolase (TGH) (Mus musculus, UniProt Q8VCT4)	=	40
O=C(CCCCCCc1ccccc1)c1noc(-c2ccccn2)n1 [10b]	triacylglycerol hydrolase (TGH) (Mus musculus, UniProt Q8VCT4)	=	0.4
O=C(CCCCCCc1ccccc1)c1nncs1 [12a]	triacylglycerol hydrolase (TGH) (Mus musculus, UniProt Q8VCT4)	=	0.1
O=C(O)c1cccc(-c2nnc(C(=O)CCCCCCc3ccccc3)s2)n1 [12g]	triacylglycerol hydrolase (TGH) (Mus musculus, UniProt Q8VCT4)	>	100
COC(=O)c1cccc(-c2ccc(C(=O)CCCCCCc3ccccc3)nn2)n1 [13f]	triacylglycerol hydrolase (TGH) (Mus musculus, UniProt Q8VCT4)	>	100
O=C(CCCCCCc1ccccc1)c1ncc(-c2ccccn2)o1 [compound 2, reference compound]	triacylglycerol hydrolase (TGH) (Mus musculus, UniProt Q8VCT4)	=	0.6
O=C(CCCCCCc1ccccc1)c1nnc(-c2ccccn2)s1 [12b]	triacylglycerol hydrolase (TGH) (Mus musculus, UniProt Q8VCT4)	=	4.5
O=C(CCCCCCc1ccccc1)c1ncon1 [10a]	triacylglycerol hydrolase (TGH) (Mus musculus, UniProt Q8VCT4)	=	0.01
O=C(CCCCCCc1ccccc1)c1ncc(-c2ccco2)o1 [7c]	triacylglycerol hydrolase (TGH) (Mus musculus, UniProt Q8VCT4)	=	0.3
O=C(O)c1cccc(-c2cnc(C(=O)CCCCCCc3ccccc3)o2)n1 [7g]	triacylglycerol hydrolase (TGH) (Mus musculus, UniProt Q8VCT4)	>	100
O=C(CCCCCCc1ccccc1)c1ncno1 [9a]	triacylglycerol hydrolase (TGH) (Mus musculus, UniProt Q8VCT4)	=	0.0007
O=C(O)c1cccc(-c2cnc(C(=O)CCCCCCc3ccccc3)s2)n1 [11g]	triacylglycerol hydrolase (TGH) (Mus musculus, UniProt Q8VCT4)	=	30
O=C(CCCCCCc1ccccc1)c1nnn(-c2ccccn2)n1 [15b]	triacylglycerol hydrolase (TGH) (Mus musculus, UniProt Q8VCT4)	=	0.12
COC(=O)c1nc(C(=O)CCCCCCc2ccccc2)no1 [10h]	triacylglycerol hydrolase (TGH) (Mus musculus, UniProt Q8VCT4)	=	0.2
N#Cc1cccc(-c2ccc(C(=O)CCCCCCc3ccccc3)nn2)n1 [13h]	triacylglycerol hydrolase (TGH) (Mus musculus, UniProt Q8VCT4)	=	12
